test-target: human peroxiredoxin 5 (PRDX5) (Homo sapiens)
Construct: 6xHis-tagged, pQE-30, E. coli M15, 15N-labelled for HSQC; reduced with DTT
Sequence (P30044 54-214): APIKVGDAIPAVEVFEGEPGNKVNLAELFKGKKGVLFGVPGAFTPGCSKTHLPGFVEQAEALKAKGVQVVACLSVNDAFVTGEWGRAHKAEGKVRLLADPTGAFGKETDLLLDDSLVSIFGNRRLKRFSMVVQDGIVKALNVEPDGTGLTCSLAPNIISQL
assay-protocol: […]-HSQC NMR titration (combined CSP fit)
Format: binding
endpoint: Kd (µM)
Give just the number in µM; leave the unit off.

Enquiry: GET /values?readout=Kd&item= Oc1cccc(-c2ccccc2)c1O [compound 5, 2,3 dihydroxy-biphenyl]
Return: 390
